All figures here come from patent US10703765B2.

target: human σ1 receptor (Homo sapiens, UniProt Q99720); experiment: biochemical; format: binding
Sequence (Q99720 whole entry): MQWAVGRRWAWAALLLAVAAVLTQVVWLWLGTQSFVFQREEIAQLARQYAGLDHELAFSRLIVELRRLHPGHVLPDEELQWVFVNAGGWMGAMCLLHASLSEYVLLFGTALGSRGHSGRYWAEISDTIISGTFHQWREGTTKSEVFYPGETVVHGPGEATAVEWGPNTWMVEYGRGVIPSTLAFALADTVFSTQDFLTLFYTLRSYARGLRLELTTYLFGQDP
Structures can show the parent of a compound that is named as a salt.
endpointName: Ki

| compound | endpointName | testValue |
| --- | --- | --- |
| CC1OC2(CCN(CCc3cncc(C(F)(F)F)c3)CC2)CN(c2ccccc2)C1=O (stereo not drawn) [Example 112, hydrochloride] | Ki | < 500 nM |
| CC1OC2(CCN(CCc3ncccc3F)CC2)CN(c2ccccc2)C1=O (stereo not drawn) [Example 96, hydrochloride] | Ki | < 500 nM |
| CC1OC2(CCN(CCc3cc(C(F)(F)F)ccn3)CC2)CN(c2ccccc2)C1=O (stereo not drawn) [Example 28, hydrochloride] | Ki | < 100 nM |
| CC1OC2(CCN(CCc3cccs3)CC2)CN(c2ccccc2)C1=O (stereo not drawn) | Ki | < 100 nM |
| CC1OC2(CCN(CCc3ccccc3O)CC2)CN(c2ccccc2)C1=O (stereo not drawn) | Ki | < 100 nM |
| CC1OC2(CCN(CCc3cncc(F)c3)CC2)CN(c2ccccc2)C1=O (stereo not drawn) [Example 114, hydrochloride] | Ki | < 500 nM |
| O=C1C(CC2CCOCC2)OC2(CCN(CCc3ccccc3)CC2)CN1c1ccccc1F (stereo not drawn) [Example 311, hydrochloride] | Ki | < 500 nM |
| CC1OC2(CCN(CCc3ccc(F)cn3)CC2)CN(c2ccccc2)C1=O (stereo not drawn) [Example 94, hydrochloride] | Ki | < 500 nM |
| CC1OC2(CCN(CCc3cncc(Cl)c3)CC2)CN(c2ccccc2)C1=O (stereo not drawn) [Example 115, hydrochloride] | Ki | < 500 nM |
| COCCCC1OC2(CCN(CCc3ccccc3)CC2)CN(c2ccccc2F)C1=O (stereo not drawn) [Example 314, hydrochloride] | Ki | < 500 nM |
| CC1OC2(CCN(CCc3cccc(C(F)(F)F)n3)CC2)CN(c2ccccc2F)C1=O (stereo not drawn) [Example 31, hydrochloride] | Ki | < 500 nM |
| CC1OC2(CCN(CCc3nccs3)CC2)CN(c2ccccc2)C1=O (stereo not drawn) [Example 95, hydrochloride] | Ki | < 500 nM |
| CC1OC2(CCN(CCc3ccccc3)CC2)CN(Cc2cccnc2)C1=O (stereo not drawn) [Example 159, hydrochloride] | Ki | < 100 nM |
| CC1OC2(CCN(CCc3ccccc3)CC2)CN(c2cccnc2F)C1=O (stereo not drawn) | Ki | < 100 nM |
| CC1OC2(CCN(CCc3csc(N)n3)CC2)CN(c2ccccc2F)C1=O (stereo not drawn) | Ki | < 500 nM |
| CC1OC2(CCN(CCc3ccccc3N)CC2)CN(c2ccccc2)C1=O (stereo not drawn) | Ki | < 100 nM |
| CC1OC2(CCN(CCc3ccccc3)CC2)CN(Cc2cccc(F)c2)C1=O (stereo not drawn) [Example 155, hydrochloride] | Ki | < 100 nM |
| Nc1nc(CCN2CCC3(CC2)CN(c2ccccc2)C(=O)C2(CC2)O3)cs1 [Example 307, dihydrochloride] | Ki | < 500 nM |
| CC1OC2(CCN(CCc3cccc(NS(=O)(=O)C(C)C)c3)CC2)CN(c2ccccc2)C1=O (stereo not drawn) [Example 261, hydrochloride] | Ki | < 500 nM |
| CC(C)C1OC2(CCN(CCc3cccnc3N)CC2)CN(c2ccccc2F)C1=O (stereo not drawn) [Example 238, dihydrochloride] | Ki | < 100 nM |
| COc1cccc(N2CC3(CCN(CCc4ccccc4)CC3)OC(C)C2=O)n1 (stereo not drawn) [Example 211, hydrochloride] | Ki | < 500 nM |
| CC(=O)Nc1cccc(CCN2CCC3(CC2)CN(c2ccccc2)C(=O)C2(CC2)O3)c1 | Ki | < 500 nM |
| CC1OC2(CCN(CCc3ccccc3)CC2)CN(CCc2cccnc2)C1=O (stereo not drawn) [Example 175, dihydrochloride] | Ki | < 500 nM |
| CC1OC2(CCN(CCc3ccccc3)CC2)CN(Cc2cccc(C(F)(F)F)n2)C1=O (stereo not drawn) [Example 174, hydrochloride] | Ki | < 100 nM |
| COC(=O)CCN1CCC2(CC1)CN(Cc1ccccc1)CC1(CC1)O2 | Ki | < 500 nM |
| CC1OC2(CCN(CCc3cccc(OCCO)c3)CC2)CN(c2ccccc2F)C1=O (stereo not drawn) | Ki | < 100 nM |
| CNS(=O)(=O)c1cccc(CCN2CCC3(CC2)CN(c2ccccc2)C(=O)C(C)O3)c1 (stereo not drawn) | Ki | < 500 nM |
| O=C1C(=CC2CCOCC2)OC2(CCN(CCc3ccccc3)CC2)CN1c1ccccc1F | Ki | < 500 nM |
| CC1OC2(CCN(CCc3ccccc3)CC2)CN(Cc2nccs2)C1=O (stereo not drawn) [Example 160, hydrochloride] | Ki | < 100 nM |
| COCC1OC2(CCN(CCc3ccccc3F)CC2)CN(c2ccccc2F)C1=O (stereo not drawn) [Example 136, hydrochloride] | Ki | < 500 nM |

====

biological target: UniProtKB Q99720; assay: biochemical; type: binding; details: read-out: μ and σ1 dual binding
Where a name gives a salt, the structure may show the parent alone.

| compound | measuredOn | Ki |
| --- | --- | --- |
| C[C@H]1OC2(CCN(CCc3ccccc3F)CC2)CN(c2cnccc2C(F)(F)F)C1=O [Example 127b, hydrochloride] | UniProtKB Q99720 | < 100 nM |
| CC1OC2(CCN(CCn3nccc3N)CC2)CN(c2ccccc2)C1=O (centres unmarked) [Example 305, hydrochloride] | UniProtKB Q99720 | > 500 nM |
| CC1OC2(CCN(CCc3ccc([N+](=O)[O-])cn3)CC2)CN(c2ccccc2)C1=O (centres unmarked) | UniProtKB Q99720 | > 500 nM |
| Nc1cccc(CCN2CCC3(CC2)CN(Cc2ccc(C(F)(F)F)cn2)C(=O)C2(CC2)O3)c1 | UniProtKB Q99720 | > 500 nM |
| CC1OC2(CCN(CCc3cccc(N)c3)CC2)CN(c2ccccc2)C1=O (centres unmarked) | UniProtKB Q99720 | < 100 nM |
| CC(C)OCCN1CCC2(CC1)CN(c1ccccc1)C(=O)C(C)O2 (centres unmarked) | UniProtKB Q99720 | > 500 nM |
| COC[C@H]1OC2(CCN(CCc3ccccc3)CC2)CN(c2ccccc2)C1=O [Example 12b] | UniProtKB Q99720 | < 100 nM |
| C[C@@H]1OC2(CCN(CCc3ccccc3F)CC2)CN(c2ncccc2C(F)(F)F)C1=O [Example 222b] | UniProtKB Q99720 | > 500 nM |
| CC1OC2(CCN(CCc3ccccc3)CC2)CN(Cc2ncccc2F)C1=O (centres unmarked) | UniProtKB Q99720 | < 100 nM |
| COCC1OC2(CCN(CCc3ccccc3)CC2)CN(c2ccccc2)C1=O (centres unmarked) | UniProtKB Q99720 | < 100 nM |
| O=C1N(c2ccccc2)CC2(CCN(CCc3ccccc3)CC2)OC12CC2 | UniProtKB Q99720 | < 100 nM |
| CC(C)(C)OC(=O)Nc1nc(CCN2CCC3(CC2)CN(Cc2ccc(C(F)(F)F)cn2)C(=O)C2(CC2)O3)cs1 | UniProtKB Q99720 | > 500 nM |
| CC1OC2(CCN(CCc3ccccc3)CC2)CN(c2ccccc2F)C1=O (centres unmarked) [Example 192, hydrochloride] | UniProtKB Q99720 | < 100 nM |
| Oc1ccccc1CCN1CCC2(CC1)CN(Cc1ccccn1)CCO2 [Example 329, hydrochloride] | UniProtKB Q99720 | < 100 nM |
| Nc1cccc(CCN2CCC3(CC2)CN(c2ccccc2)C(=O)C2(CC2)O3)c1 | UniProtKB Q99720 | > 500 nM |
| COc1ccccc1CCN1CCC2(CC1)CN(Cc1ccccn1)CCO2 | UniProtKB Q99720 | < 500 nM |
| CC(C)C1OC2(CCN(CCc3csc(NC(=O)OC(C)(C)C)n3)CC2)CN(c2ccccc2F)C1=O (centres unmarked) | UniProtKB Q99720 | > 500 nM |
| CC(C)(C)OC(=O)Nc1nc(CCN2CCC3(CC2)CN(c2ccccc2)C(=O)C2(CC2)O3)cs1 | UniProtKB Q99720 | > 500 nM |
| CC1(C)OC2(CCN(CCc3ccccc3)CC2)CN(c2ccccc2)C1=O | UniProtKB Q99720 | < 100 nM |
| O=C1N(c2cnccc2C(F)(F)F)CC2(CCN(CCc3cc(F)ccc3F)CC2)OC12CC2 | UniProtKB Q99720 | < 500 nM |
| CC1OC2(CCN(CCc3ccccc3)CC2)CN(c2cnccn2)C1=O (centres unmarked) [Example 195, hydrochloride] | UniProtKB Q99720 | < 500 nM |
| O=C1COC2(CCN(CCc3ccccc3)CC2)CN1Cc1ccc(F)cn1 [Example 176, hydrochloride] | UniProtKB Q99720 | < 500 nM |
| CC1OC2(CCN(CCc3ccc(C(=O)O)cc3)CC2)CN(c2ccccc2)C1=O (centres unmarked) | UniProtKB Q99720 | > 500 nM |
| CC1OC2(CCN(CCc3ccccc3)CC2)CN(c2cccnc2C(F)(F)F)C1=O (centres unmarked) [Example 215, hydrochloride] | UniProtKB Q99720 | < 500 nM |
| O=C1N(Cc2ccc(C(F)(F)F)cn2)CC2(CCN(CCc3cccc([N+](=O)[O-])c3)CC2)OC12CC2 | UniProtKB Q99720 | > 500 nM |
| CC(C)=C1OC2(CCN(CCc3ccccn3)CC2)CN(c2ccccc2F)C1=O | UniProtKB Q99720 | > 500 nM |
| COC(=O)CC1OC2(CCN(CCc3ccccc3)CC2)CN(c2ccccc2)C1=O (centres unmarked) [Example 14, hydrochloride] | UniProtKB Q99720 | < 100 nM |
| CC1OC2(CCN(CCc3ncccn3)CC2)CN(c2ccccc2)C1=O (centres unmarked) [Example 26, hydrochloride] | UniProtKB Q99720 | > 500 nM |
| CC(=O)Nc1cccc(CCN2CCC3(CC2)CN(c2ccccc2)C(=O)C(C)O3)c1 (centres unmarked) | UniProtKB Q99720 | < 500 nM |
| O=C1COC2(CCN(CCc3ccccc3)CC2)CN1Cc1ccccc1 [Example 153, hydrochloride] | UniProtKB Q99720 | < 100 nM |
| O=C1COC2(CCN(CCc3ccccn3)CC2)CN1Cc1ccc(C(F)(F)F)cn1 [Example 98, hydrochloride] | UniProtKB Q99720 | < 500 nM |
| O=C1N(c2cnccc2C(F)(F)F)CC2(CCN(CCc3ccccc3F)CC2)OC12CC2 [Example 223, hydrochloride] | UniProtKB Q99720 | < 100 nM |
